# measured_on: T1, TDP-3 peptide (human)
# T1 construct: Irrelevant control peptide; conjugated to Luminex beads in the assay; also called TDP-43 aa 310-370; irrelevant target
# T1 peptide: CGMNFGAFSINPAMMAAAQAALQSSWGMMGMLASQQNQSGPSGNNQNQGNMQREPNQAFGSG
# protocol_notes: Luminex bead assay, TDP-3 peptide beads (irrelevant target)
readout_name: binding result

Illustrative cases are given below, each with its answer.
ACI-7062-412E12-Ab1 (antibody, IgG1, V domains shown, also called 412E12A2; clone 10) VH: DVQLVESGGGLVQPGGSRRLSCAASGFTFSRFGMHWVRQAPEKGLEWVAYIRSGSDIIYYADSVKGRFTISRDNPENTLFLQMTSLRSEDTAMYYCARSGTTVPFDYWGQGTSLTVSS VL: DIVMTQSPSSLAMSVGQKVTMSCKSSQSLLNSGDQKNYLAWYQQKPGQSPELLLYFASTRASGVPDRFIGSGSGTDFSLTISSVQAEDLADYFCQQHYSIPLTFGAGTKLELKR	no binding
ACI-7062-410H3-Ab1 (antibody, IgG1, V domains shown, also called 410H3B9; clone 7) VH: DVQLVESGGGLVQPGGSRRLSCAASGFTFSSFGMHWVRQAPEKGLEWVAYIRSGSDIIYYADSVKGRFTISRDNPENTLFLQMTSLRSEDTAMYYCARSGTTVPFDYWGQGTSLTVSS VL: DIVMTQSPSSLAMSVGQKVTMSCKSSQSLLNSGNQKNYLAWYQQKPGQSPELLLYFASTRASGVPDRFIGSGSGTDFTLTISSVQAEDLADYFCQQHYSIPLTFGAGTKLELKR	no binding
ACI-7062-412A7-Ab1 (antibody, IgG2b, V domains shown, also called 412A7B7; clone 9) VH: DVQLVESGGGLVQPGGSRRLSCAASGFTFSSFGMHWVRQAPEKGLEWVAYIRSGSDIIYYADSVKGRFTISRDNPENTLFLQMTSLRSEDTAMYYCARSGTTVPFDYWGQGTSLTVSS VL: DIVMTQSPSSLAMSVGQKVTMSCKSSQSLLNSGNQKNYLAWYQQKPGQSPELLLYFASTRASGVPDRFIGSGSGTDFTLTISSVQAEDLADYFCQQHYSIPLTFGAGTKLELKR	no binding
ACI-7062-416A11-Ab1 (antibody, IgG2a, V domains shown, also called 416A11B3; clone 18) VH: QVTLKESGPGILQSSQTLSLTCSFSGFSLSTYGIGVGWIRQPSGKGLEWLAHIWWNDNKYYNTALKSRLTISKDTSNNQVFLKIASVDTADAATYYCARVYGNLYYFGYWGQGTTLTVSS VL: DVLMTQTPLSLPVSLGDRASISCRSSQSIVHSSGNTYLEWYLQKPGQSPKLLIYKVSNRFSGVPDRFSGSGSGTDFTLKISRVEAEDLGVYYCFQGSRVPTFGAGTKLELKR	no binding

Read the next record carefully.
Req: Query binding result for ACI-7062-406E3-Ab2 (antibody, IgG2a, V domains shown, also called 406E3G10; clone 6) VH: QVTLKESGPAILQPSQTLSLTCSFSGFSLTTYGIGVGWIRQPSGKGLEWLAHIWWNDNKYYNTALKSRLTVSKDTSNNQVFLKIASVDTADTATYYCARVYGNLYYFAYWGQGTTLTVSS VL: DVLMTQTPLSLPVSLGDRASISCRSSQSIVHRSGNTYLEWYLQKPGQSPKLLIYKVSNRFSGVPDRFSGSGSGTDFTLKISRVEAEDLGVYYCFQGSHVPTFGAGTKLELKR
Resp: no binding
